System Name: mouse GnRH receptor (Mus musculus)
Construct: expressed in transfected cells; host or cells: 293 cells
Sequence (Q01776 1-327): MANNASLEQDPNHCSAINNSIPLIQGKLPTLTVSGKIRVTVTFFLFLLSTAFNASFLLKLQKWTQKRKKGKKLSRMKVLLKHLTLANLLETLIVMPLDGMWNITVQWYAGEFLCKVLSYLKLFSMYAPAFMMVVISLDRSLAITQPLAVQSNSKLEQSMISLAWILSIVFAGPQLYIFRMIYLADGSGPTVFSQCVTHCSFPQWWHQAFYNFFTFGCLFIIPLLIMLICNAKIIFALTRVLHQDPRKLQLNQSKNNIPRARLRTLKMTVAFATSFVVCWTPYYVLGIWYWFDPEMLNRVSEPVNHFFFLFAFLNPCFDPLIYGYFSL
Test Description: Radioligand binding, 125I-GnRH-A, 293 cells expressing mouse GnRH receptors
Test Settings: 10 uM; read-out: % Inhib. @ 10 uM mGnRH
Classification field: rule met = inhibition at 10 µM at or over 90%; rule not met = inhibition at 10 µM under 90%.

{"Compound": "Cc1cc2c(cc1Cc1ccc(C(=O)N(C)CC(O)CO)o1)C(C)(C)CCC2(C)C (centres unmarked)", "Label Value": "rule not met"}
{"Compound": "Cc1cc2c(cc1Cc1ccc(C(=O)N(Cc3ccco3)C3CCN(Cc4ccccc4)C3)o1)C(C)(C)CCC2(C)C (centres unmarked) [drawing 1559]", "Label Value": "rule met"}
{"Compound": "Cc1cc2c(cc1Cc1ccc(C(=O)N3CCN(C(c4ccccc4)c4ccccc4)CC3)o1)C(C)(C)CCC2(C)C", "Label Value": "rule not met"}
{"Compound": "Cc1cc2c(cc1Cc1ccc(C(=O)N(C)[C@@H](C)Cc3ccccc3)o1)C(C)(C)CCC2(C)C", "Label Value": "rule not met"}
{"Compound": "Cc1cc2c(cc1Cc1ccc(C(=O)NC(C)C3CCCCC3)o1)C(C)(C)CCC2(C)C (centres unmarked) [drawing 1463]", "Label Value": "rule not met"}
{"Compound": "Cc1cc2c(cc1Cc1ccc(C(=O)N3CCCC(C)(C)C3)o1)C(C)(C)CCC2(C)C [drawing 1523]", "Label Value": "rule met"}
{"Compound": "Cc1cc2c(cc1Cc1ccc(C(=O)N3CCC4(CC3)C(=O)NCN4c3ccccc3)o1)C(C)(C)CCC2(C)C [drawing 1511]", "Label Value": "rule not met"}
{"Compound": "CCCCN(CCC#N)C(=O)c1ccc(Cc2cc3c(cc2C)C(C)(C)CCC3(C)C)o1", "Label Value": "rule not met"}
{"Compound": "Cc1cc2c(cc1Cc1ccc(C(=O)N3CCCCC3C[C@H]3CCCN3C)o1)C(C)(C)CCC2(C)C (some centres unmarked)", "Label Value": "rule not met"}
{"Compound": "Cc1cc2c(cc1Cc1ccc(C(=O)N(C)C3CCN(Cc4ccccc4)C3)o1)C(C)(C)CCC2(C)C (centres unmarked)", "Label Value": "rule met"}
{"Compound": "COC(CNC(=O)c1ccc(Cc2cc3c(cc2C)C(C)(C)CCC3(C)C)o1)OC [drawing 1505]", "Label Value": "rule met"}
{"Compound": "Cc1cc2c(cc1Cc1ccc(C(=O)N3CCN(Cc4ccccc4)CC3)o1)C(C)(C)CCC2(C)C", "Label Value": "rule not met"}
{"Compound": "Cc1cc2c(cc1Cc1ccc(C(=O)N(Cc3ccccc3Cl)C3CCN(Cc4ccccc4)CC3)o1)C(C)(C)CCC2(C)C", "Label Value": "rule not met"}
{"Compound": "CCOC(=O)CCNC(=O)c1ccc(Cc2cc3c(cc2C)C(C)(C)CCC3(C)C)o1 [drawing 1592]", "Label Value": "rule met"}
{"Compound": "Cc1cc2c(cc1Cc1ccc(C(=O)N(CCC(c3ccccc3)c3ccccc3)CC3CCCCC3)o1)C(C)(C)CCC2(C)C", "Label Value": "rule not met"}
{"Compound": "Cc1cc2c(cc1Cc1ccc(C(=O)N(CCC3CCCN3C)Cc3ccc4ccccc4c3)o1)C(C)(C)CCC2(C)C (centres unmarked) [drawing 1492]", "Label Value": "rule met"}
{"Compound": "Cc1ccc(N2CCN(C(=O)c3ccc(Cc4cc5c(cc4C)C(C)(C)CCC5(C)C)o3)CC2)cc1C", "Label Value": "rule not met"}
{"Compound": "C=CCN(C(=O)c1ccc(Cc2cc3c(cc2C)C(C)(C)CCC3(C)C)o1)C1CCCC1", "Label Value": "rule met"}
{"Compound": "Cc1cc2c(cc1Cc1ccc(C(=O)NCCC3=CCCCC3)o1)C(C)(C)CCC2(C)C [drawing 1448]", "Label Value": "rule not met"}
{"Compound": "COCCCNC(=O)c1ccc(Cc2cc3c(cc2C)C(C)(C)CCC3(C)C)o1 [drawing 1268]", "Label Value": "rule met"}

Values compiled from patent US7101878B1.
